# Lookup of reported GI50 keyed by entry
Assay: cells
Conditions: Homo sapiens, MV4-11, 48 h
Description: Growth inhibition of human MV411 cells after 48 hrs by XTT assay
// units = nM; emit number, no label

compound=CC1=CC(=O)N(Nc2nc(-c3cccs3)nc3sc(CO)c(C)c23)C1=O parameter=GI50 u=nM experimental_value=92
compound="COc1cc2c(N3CCN(C(=O)Nc4ccc(OC(C)C)cc4)CC3)ncnc2cc1OCCCN1CCCCC1 [TANDUTINIB]" parameter=GI50 u=nM experimental_value=8760
compound=COC(=O)c1sc2nc(-c3cccs3)nc(NN3C(=O)C=C(C)C3=O)c2c1C parameter=GI50 u=nM experimental_value=86
compound=COCc1sc2nc(-c3cccs3)nc(NN3C(=O)C=C(C)C3=O)c2c1C parameter=GI50 u=nM experimental_value=115
compound=CC1=CC(=O)N(Nc2nc(-c3cccs3)nc3sc(-c4ccc([N+](=O)[O-])cc4)c(C)c23)C1=O parameter=GI50 u=nM experimental_value=112

stdin: If you can, please state the reported GI50 value of `CC1=CC(=O)N(Nc2nc(-c3ccccc3)nc3scc(-c4cccs4)c23)C1=O` .
stdout: 836

stdin: If you can, please state the reported GI50 value of `COC(=O)Cc1sc2nc(-c3cccs3)nc(NN3C(=O)C=C(C)C3=O)c2c1C` .
stdout: 91

stdin: If you can, please state the reported GI50 value of `CC1=CC(=O)N(Nc2nc(-c3cccs3)nc3sc(Cc4ccc(O)cc4)c(C)c23)C1=O` .
stdout: 103
